Target: RET (Homo sapiens)
Construct: other kinases of recombinant human cytoplasmic domain
Sequence (P07949 658-1114 limits assumed): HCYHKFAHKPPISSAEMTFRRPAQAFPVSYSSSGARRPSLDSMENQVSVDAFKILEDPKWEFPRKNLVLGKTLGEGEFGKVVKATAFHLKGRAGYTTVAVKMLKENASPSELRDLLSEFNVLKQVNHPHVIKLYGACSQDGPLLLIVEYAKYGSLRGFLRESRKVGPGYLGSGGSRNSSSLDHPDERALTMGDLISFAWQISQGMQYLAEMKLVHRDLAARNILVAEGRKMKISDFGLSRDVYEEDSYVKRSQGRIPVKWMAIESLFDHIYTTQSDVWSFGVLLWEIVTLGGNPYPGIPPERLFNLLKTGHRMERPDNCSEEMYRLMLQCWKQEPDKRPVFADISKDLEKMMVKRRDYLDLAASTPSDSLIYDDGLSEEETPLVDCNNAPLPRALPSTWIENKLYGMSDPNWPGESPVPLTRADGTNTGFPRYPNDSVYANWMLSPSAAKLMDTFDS
Assay: radiometric kinase assay, other kinases: RET
Settings: duplicate
Experimental: Compound inhibition in a radiometric based mixed micelle assay: In a final reaction volume of 25 μL, TrkA (h) ([…]) is incubated with the kinase reaction buffer (20 mM HEPES (pH 7.5), 10 mM MgCl2, 1 mM EGTA, 0.02% Brij 35, 0.02 mg/ml BSA, 0.1 mM Na3VO4, 2 mM DTT, 1% DMSO), 0.2 mg/ml substrate PolyEY(4:1) and […], and [^33P-ATP](specific activity approx. 500 cpm/pmol, concentration as required). The reaction is initiated by the addition of the MgATP mix. […]
pIC50: −log10 of the molar value.
outcome measure: pIC50

Query: Write down the reported pIC50 of Nc1c(N2CCN(C3CCCCC3)CC2)cc(Nc2ccc(C(=O)O)cc2)c2c1C(=O)c1ccccc1C2=O , test system: RET (Homo sapiens).
Result: < 5.00

====

Target: FLT3 (CD) (Homo sapiens, UniProt P36888)
Construct: other kinases of recombinant human cytoplasmic domain
Sequence (P36888 564-993 limits assumed): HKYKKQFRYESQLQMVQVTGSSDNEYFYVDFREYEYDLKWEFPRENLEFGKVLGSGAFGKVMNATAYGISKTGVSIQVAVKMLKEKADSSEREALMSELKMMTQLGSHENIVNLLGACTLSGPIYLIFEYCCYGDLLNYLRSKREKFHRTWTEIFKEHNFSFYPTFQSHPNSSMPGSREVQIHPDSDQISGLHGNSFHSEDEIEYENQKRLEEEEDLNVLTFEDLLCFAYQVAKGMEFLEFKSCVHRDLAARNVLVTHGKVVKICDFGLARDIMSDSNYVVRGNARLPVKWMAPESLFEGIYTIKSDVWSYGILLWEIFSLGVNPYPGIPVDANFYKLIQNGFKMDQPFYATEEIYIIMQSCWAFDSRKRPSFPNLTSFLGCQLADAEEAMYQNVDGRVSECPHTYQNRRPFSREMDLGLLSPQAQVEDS
Assay: radiometric kinase assay, other kinases: FLT3 (CD)
Details: duplicate
pIC50: −log10 of the molar value.
outcome measure: pIC50

Query: So what's the measured pIC50 for this one? Nc1c(N2CCN(C3CCCCC3)CC2)cc(Nc2ccc(C(=O)O)cc2)c2c1C(=O)c1ccccc1C2=O [Compound 12]
Result: < 5.00

====

pIC50: −log10 of the molar value.
outcome measure: pIC50

Query: Write down the reported pIC50 of Nc1c(N2CCN(C3CCCCC3)CC2)cc(Nc2ccc(C(=O)O)cc2)c2c1C(=O)c1ccccc1C2=O , test system: PKCalpha (Homo sapiens, UniProt P17252).
Result: < 5.00

====

Target: CDK2/cyclinE (Homo sapiens)
Test: radiometric kinase assay, other kinases: CDK2/cyclinE
Settings: duplicate
pIC50: −log10 of the molar value.
outcome measure: pIC50

Query: So what's the measured pIC50 for this one? Nc1c(N2CCN(C3CCCCC3)CC2)cc(Nc2ccc(C(=O)O)cc2)c2c1C(=O)c1ccccc1C2=O
Result: < 5.00

====

Target: c-MET (Homo sapiens)
Construct: other kinases of recombinant human cytoplasmic domain
Sequence (P08581 956-1390 limits assumed): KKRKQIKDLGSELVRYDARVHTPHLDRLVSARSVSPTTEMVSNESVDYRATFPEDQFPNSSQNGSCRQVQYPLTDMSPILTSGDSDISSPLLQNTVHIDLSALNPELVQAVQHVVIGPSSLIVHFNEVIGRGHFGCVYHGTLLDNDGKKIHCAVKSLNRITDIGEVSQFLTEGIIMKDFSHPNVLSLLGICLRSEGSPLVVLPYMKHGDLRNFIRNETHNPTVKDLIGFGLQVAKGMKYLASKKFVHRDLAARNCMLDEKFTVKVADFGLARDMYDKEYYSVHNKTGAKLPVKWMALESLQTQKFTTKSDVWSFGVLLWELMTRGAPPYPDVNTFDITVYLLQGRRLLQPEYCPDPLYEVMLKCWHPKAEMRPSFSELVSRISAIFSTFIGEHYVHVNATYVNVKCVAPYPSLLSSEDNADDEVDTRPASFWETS
Test: radiometric kinase assay, other kinases: c-MET
Settings: duplicate
outcome measure: IC50

Query: Write down the reported IC50 of Nc1c(N2CCN(C3CCCCC3)CC2)cc(Nc2ccc(C(=O)O)cc2)c2c1C(=O)c1ccccc1C2=O , test system: c-MET (Homo sapiens).
Result: > 10 µM

====

Target: PDGFRb (Homo sapiens, UniProt P09619)
Construct: other kinases of recombinant human cytoplasmic domain
Sequence (P09619 554-1106 limits assumed): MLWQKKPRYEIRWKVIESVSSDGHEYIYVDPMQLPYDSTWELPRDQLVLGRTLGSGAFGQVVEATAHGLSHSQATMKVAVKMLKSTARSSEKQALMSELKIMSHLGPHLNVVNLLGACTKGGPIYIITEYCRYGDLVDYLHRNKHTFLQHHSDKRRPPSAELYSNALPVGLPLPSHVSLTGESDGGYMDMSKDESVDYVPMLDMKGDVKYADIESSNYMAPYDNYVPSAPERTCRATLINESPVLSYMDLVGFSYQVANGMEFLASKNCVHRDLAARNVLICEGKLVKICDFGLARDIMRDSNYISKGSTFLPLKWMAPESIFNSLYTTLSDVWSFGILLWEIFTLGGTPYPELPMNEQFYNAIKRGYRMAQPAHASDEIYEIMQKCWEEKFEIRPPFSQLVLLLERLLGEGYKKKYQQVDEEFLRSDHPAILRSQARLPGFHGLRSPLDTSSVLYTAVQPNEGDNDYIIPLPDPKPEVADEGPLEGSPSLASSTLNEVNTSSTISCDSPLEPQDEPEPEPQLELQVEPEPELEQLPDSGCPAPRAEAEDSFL
Assay: radiometric kinase assay, other kinases: PDGFRb
Conditions: duplicate
outcome measure: IC50

Query: So what's the measured IC50 for this one? Nc1c(N2CCN(C3CCCCC3)CC2)cc(Nc2ccc(C(=O)O)cc2)c2c1C(=O)c1ccccc1C2=O
Result: > 10 µM

====

Target: TIE2/TEK (Homo sapiens, UniProt Q02763)
Construct: other kinases of recombinant human cytoplasmic domain
Sequence (Q02763 770-1124 limits assumed): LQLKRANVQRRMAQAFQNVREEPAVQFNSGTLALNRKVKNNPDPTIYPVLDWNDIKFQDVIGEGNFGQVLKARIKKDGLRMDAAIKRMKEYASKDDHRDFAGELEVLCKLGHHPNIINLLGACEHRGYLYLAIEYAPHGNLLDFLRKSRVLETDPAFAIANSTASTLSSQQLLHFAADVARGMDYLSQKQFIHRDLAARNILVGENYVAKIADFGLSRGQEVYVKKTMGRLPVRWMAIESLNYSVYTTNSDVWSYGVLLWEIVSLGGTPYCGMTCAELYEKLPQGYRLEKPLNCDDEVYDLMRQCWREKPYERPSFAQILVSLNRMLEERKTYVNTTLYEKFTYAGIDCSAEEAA
Assay: radiometric kinase assay, other kinases: TIE2/TEK
Settings: duplicate
outcome measure: IC50

Query: So what's the measured IC50 for this one? Nc1c(N2CCN(C3CCCCC3)CC2)cc(Nc2ccc(C(=O)O)cc2)c2c1C(=O)c1ccccc1C2=O [Compound 12]
Result: > 10 µM
